The measured values listed here are drawn from the supplement of paper PMC12645437.

- assayed_target: T1, CRBN, Q96SW2;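 note: pooled lentiviral library of zinc finger degron-EGFP fusions in mCherry-positive Jurkat cells, FACS-sorted after compound exposure, with degron abundance counted by next-generation sequencing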
- T1 chain: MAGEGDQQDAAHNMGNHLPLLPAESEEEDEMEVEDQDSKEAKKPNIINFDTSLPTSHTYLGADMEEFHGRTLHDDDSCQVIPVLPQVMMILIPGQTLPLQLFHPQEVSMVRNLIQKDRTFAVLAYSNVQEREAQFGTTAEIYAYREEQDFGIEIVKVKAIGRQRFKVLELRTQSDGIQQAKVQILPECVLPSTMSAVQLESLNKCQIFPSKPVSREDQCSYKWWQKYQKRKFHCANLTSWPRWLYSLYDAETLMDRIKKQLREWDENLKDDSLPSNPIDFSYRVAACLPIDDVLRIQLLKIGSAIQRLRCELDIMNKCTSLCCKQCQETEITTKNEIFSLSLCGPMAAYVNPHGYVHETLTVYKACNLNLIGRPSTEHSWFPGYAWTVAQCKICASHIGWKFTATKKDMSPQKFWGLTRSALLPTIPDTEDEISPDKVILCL
- test_summary: log2 fold change of degron read counts, EGFP-low vs EGFP+ sorted cells (limma voom), compound-induced degradation; higher = more compound-induced degradation of the degron-EGFP fusion; degrons are variants of IKZF1/3 zinc finger 2; compound dose not given here
- run_conditions: Jurkat; 18 h; compound: compound 19 (5-tert-butyl-thalidomide)
Whole data set: some 8,300 sequences, median “log2 fold change of degron read counts, EGFP-low vs EGFP+ sorted cells (limma voom), compound-induced degradation” near -1.1, cut for the highest 2% near 3.2. The full list was thinned out, with the highest values kept by preference.
// log2 fold change of degron read counts lookup, one value per entry
Provide a numeric answer; units are not to be included.

Example results:
FTCEVCGAGFTQKGNLLRHIKL [46F_47T_49E_50V_52G_53A_54G_55F_67L_, Q9UKT9] :: 2.39
LACEICGFACTQKGNLLRHIKL [46L_47A_49E_50I_52G_53F_54A_55C_67L_, Q9UKT9] :: 3.1
LQCEICGFACTQKGNLLRHIKL [46L_47Q_49E_50I_52G_53F_54A_55C_67L_, Q9UKT9] :: 2.27

Consider the sequence shown here: LICEICGFACTQKGNLLRHIKL [46L_47I_49E_50I_52G_53F_54A_55C_67L_, Q9UKT9] What is its recorded log2 fold change of degron read counts?
0.692

What value of measured log2 fold change of degron read counts is listed for FACPICGASFTQKGNLLRHIKL [46F_47A_49P_50I_52G_53A_54S_55F_67L_, Q9UKT9] ?
3.73
